molecular target: Norepinephrine transporter (Rattus norvegicus); assay: Ability to inhibit reuptake of norepinephrine ([3H]NE) at norepinephrine transporter of rat parietal/occipital region
Sequence (Q9WTR4 whole entry): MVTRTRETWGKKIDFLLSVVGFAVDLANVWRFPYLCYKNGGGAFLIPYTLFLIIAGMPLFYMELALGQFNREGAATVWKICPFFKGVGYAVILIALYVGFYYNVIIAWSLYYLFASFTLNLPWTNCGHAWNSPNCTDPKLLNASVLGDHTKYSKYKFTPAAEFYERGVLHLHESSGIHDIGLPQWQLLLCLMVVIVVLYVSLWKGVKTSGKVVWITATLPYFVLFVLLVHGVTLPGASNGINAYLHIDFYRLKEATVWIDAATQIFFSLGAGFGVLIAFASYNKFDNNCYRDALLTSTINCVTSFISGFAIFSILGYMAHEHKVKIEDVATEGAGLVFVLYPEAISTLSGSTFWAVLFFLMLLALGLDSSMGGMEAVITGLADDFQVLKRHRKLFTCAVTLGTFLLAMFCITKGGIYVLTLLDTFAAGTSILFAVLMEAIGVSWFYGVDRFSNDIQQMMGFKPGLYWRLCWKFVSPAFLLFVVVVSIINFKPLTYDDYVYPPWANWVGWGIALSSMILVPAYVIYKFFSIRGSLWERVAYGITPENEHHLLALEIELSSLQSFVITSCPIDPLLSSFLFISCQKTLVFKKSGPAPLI
pKi listing for selected compounds.
Interpret pKi as the negative base-10 log of the concentration measured in mol/L.

The cases that follow already have their pKi on record.
compound	pKi
COC(=O)C1C2CC3CCC1N3C/C2=C\c1nccs1 (stereo unspecified)	6.07
COC(=O)C1C2CC3CCC1N3C/C2=C\c1ccc(-c2ccc(Cl)s2)s1 (stereo unspecified)	7.24
COC(=O)C1C2CC3CCC1N3C/C2=C\c1ccc(-c2ccc(SC)cc2)s1 (stereo unspecified)	6.56
COC(=O)C1C2CC3CCC1N3C/C2=C\c1ccc(Cl)nc1 (stereo unspecified)	5.19
COC(=O)C1C2CC3CCC1N3C/C2=C\c1ccc(-c2cccs2)s1 (stereo unspecified)	7.01

Q: Give the measured pKi of COC(=O)C1C2CC3CCC1N3C/C2=C\c1ccc(-c2ccc(OC)cc2)s1 (stereo unspecified) .
A: 7.99

Q: Param item: COC(=O)C1C2CC3CCC1N3C/C2=C\c1cccnc1 (stereo unspecified)
A: 4.90

Q: Another compound to check: CCCc1ccc(/C=C2\CN3C4CCC3C(C(=O)OC)C2C4)s1 (stereo unspecified)
A: 6.20

====

target: Sodium-dependent dopamine transporter (Rattus norvegicus, UniProt P23977); assay: Ability to inhibit reuptake of dopamine ([3H]DA) at dopamine transporter of rat striatum
Sequence (P23977 whole entry): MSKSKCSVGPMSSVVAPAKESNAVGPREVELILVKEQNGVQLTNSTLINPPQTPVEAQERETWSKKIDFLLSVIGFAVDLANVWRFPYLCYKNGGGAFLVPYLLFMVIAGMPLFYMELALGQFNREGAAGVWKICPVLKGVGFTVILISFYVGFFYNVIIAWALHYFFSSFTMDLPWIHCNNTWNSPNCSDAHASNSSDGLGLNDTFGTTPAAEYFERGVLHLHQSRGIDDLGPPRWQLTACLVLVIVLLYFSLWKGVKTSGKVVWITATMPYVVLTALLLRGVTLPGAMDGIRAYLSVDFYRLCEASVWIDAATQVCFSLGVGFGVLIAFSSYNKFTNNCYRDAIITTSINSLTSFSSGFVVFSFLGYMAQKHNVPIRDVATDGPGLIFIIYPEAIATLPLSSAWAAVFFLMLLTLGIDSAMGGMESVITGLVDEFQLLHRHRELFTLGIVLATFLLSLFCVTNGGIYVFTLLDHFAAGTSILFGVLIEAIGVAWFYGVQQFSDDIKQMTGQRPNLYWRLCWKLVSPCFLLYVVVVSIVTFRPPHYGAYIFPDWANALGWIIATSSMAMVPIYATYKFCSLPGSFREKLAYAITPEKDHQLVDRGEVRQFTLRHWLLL
value-type: Ki (nM)
Write the value in nM as a bare number.

molecule	Ki [nM]
COC(=O)C1C2CC3CCC1N3C/C2=C\c1ccsc1 (stereo unspecified)	485
COC(=O)C1C2CC3CCC1N3C/C2=C\c1cc(C)c(Br)s1 (stereo unspecified)	1280
COC(=O)C1C2CC3CCC1N3C/C2=C\c1ccc(-c2ccc(SC)cc2)s1 (stereo unspecified)	1650

Q: So what does the record say about Ki for COC(=O)C1C2CC3CCC1N3C/C2=C\c1cccc(OC)n1 (stereo unspecified) ?
A: 14000

====

target: Sodium-dependent serotonin transporter (Rattus norvegicus, UniProt P31652); assay: Ability to inhibit reuptake of serotonin ([3H]5-HT) at serotonin transporter of rat midbrian
Sequence (P31652 whole entry): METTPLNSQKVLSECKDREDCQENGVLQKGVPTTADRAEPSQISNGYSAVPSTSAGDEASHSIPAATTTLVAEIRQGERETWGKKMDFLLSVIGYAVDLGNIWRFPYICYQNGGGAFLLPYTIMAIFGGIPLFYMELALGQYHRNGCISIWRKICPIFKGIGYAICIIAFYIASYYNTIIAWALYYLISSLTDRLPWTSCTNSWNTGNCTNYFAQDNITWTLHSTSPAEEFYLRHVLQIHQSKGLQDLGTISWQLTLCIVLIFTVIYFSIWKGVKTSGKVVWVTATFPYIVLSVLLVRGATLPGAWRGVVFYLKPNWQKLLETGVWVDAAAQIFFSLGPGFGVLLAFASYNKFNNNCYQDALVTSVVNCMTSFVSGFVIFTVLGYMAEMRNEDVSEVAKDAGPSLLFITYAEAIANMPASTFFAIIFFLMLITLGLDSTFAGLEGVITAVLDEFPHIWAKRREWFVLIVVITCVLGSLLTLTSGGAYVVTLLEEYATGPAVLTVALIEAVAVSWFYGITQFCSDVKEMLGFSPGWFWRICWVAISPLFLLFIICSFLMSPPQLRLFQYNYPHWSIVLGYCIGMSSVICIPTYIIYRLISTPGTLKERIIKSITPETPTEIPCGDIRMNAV
Listed next: entries and their corresponding log10 of Ki.
Scale: log10; quantity: Ki; unit before log: nM

Below: 10 molecules and their reported log10 of Ki.
molecule	value-type	measured-result
COC(=O)C1C2CC3CCC1N3C/C2=C\c1ccc(-c2ccccc2)s1 (stereo not given)	log10 of Ki	1.85
COC(=O)C1C2CC3CCC1N3C/C2=C\c1cnc(OC)nc1OC (stereo not given)	log10 of Ki	3.71
COC(=O)C1C2CC3CCC1N3C/C2=C\c1ccccn1 (stereo not given)	log10 of Ki	3.50
COC(=O)C1C2CC3CCC1N3C/C2=C\c1cnccn1 (stereo not given)	log10 of Ki	3.85
COC(=O)C1C2CC3CCC1N3C/C2=C\c1cccc(OC)n1 (stereo not given)	log10 of Ki	2.68
COC(=O)C1C2CC3CCC1N3C/C2=C\c1ccc(Br)s1 (stereo not given)	log10 of Ki	1.56
COC(=O)C1C2CC3CCC1N3C/C2=C\c1ccc(OC)s1 (stereo not given)	log10 of Ki	2.74
CCCCc1ccc(/C=C2\CN3C4CCC3C(C(=O)OC)C2C4)s1 (stereo not given)	log10 of Ki	2.82
COC(=O)C1C2CC3CCC1N3C/C2=C\c1ccsc1 (stereo not given)	log10 of Ki	3.50
COC(=O)C1C2CC3CCC1N3C/C2=C\c1ccc(Cl)nc1 (stereo not given)	log10 of Ki	2.91

Q: Fill in the blank: the reported log10 of Ki of CCc1ccc(/C=C2\CN3C4CCC3C(C(=O)OC)C2C4)s1 (stereo not given) is ____.
A: 2.54

Q: And COC(=O)C1C2CC3CCC1N3C/C2=C\c1ccc(-c2ccc(SC)cc2)s1 (stereo not given) ?
A: 3.52

Q: Another molecule to look at: COC(=O)C1C2CC3CCC1N3C/C2=C\c1ccc(-c2ccc(Cl)s2)s1 (stereo not given)
A: 1.97

Q: Do the same for COC(=O)C1C2CC3CCC1N3C/C2=C\c1ccc(-c2ccc(OC)cc2)s1 (stereo not given) please
A: 2.73

====

test: Inhibition of reuptake of norepinephrine compared to dopamine.; type: functional
Here the recorded Ratio is given for each entry.
// no unit, no text: just the number

As a guide, the following entries are already answered.
compound	Ratio
CCCc1ccc(/C=C2\CN3C4CCC3C(C(=O)OC)C2C4)s1 (stereo unspecified)	0.39
COC(=O)C1C2CC3CCC1N3C/C2=C\c1ccccn1 (stereo unspecified)	0.11
CCCCc1ccc(/C=C2\CN3C4CCC3C(C(=O)OC)C2C4)s1 (stereo unspecified)	0.08
COC(=O)C1C2CC3CCC1N3C/C2=C\c1ccc(-c2ccccc2)s1 (stereo unspecified)	0.08
COC(=O)C1C2CC3CCC1N3C/C2=C\c1cc(C)c(Br)s1 (stereo unspecified)	0.03

Turning now to a further record.
Q: Need Ratio of COC(=O)C1C2CC3CCC1N3C/C2=C\c1ccc(C)s1 (stereo unspecified) , thanks.
A: 0.01

====

target: Sodium-dependent dopamine transporter (Rattus norvegicus); experiment: Ability to inhibit reuptake of dopamine ([3H]DA) at dopamine transporter of rat striatum
pKi: −log10 of the molar value.
value-type: pKi

Use these answered entries as a reference point.
compound	test-target	value-type	measured-result
COC(=O)C1C2CC3CCC1N3C/C2=C\c1ccc(OC)s1 (stereo not drawn)	Sodium-dependent dopamine transporter (Rattus norvegicus)	pKi	< 5.00
COC(=O)C1C2CC3CCC1N3C/C2=C\c1cnc(OC)nc1OC (stereo not drawn)	Sodium-dependent dopamine transporter (Rattus norvegicus)	pKi	< 5.00

Please turn your attention to the following entry.
Q: Which pKi is reported for this compound? COC(=O)C1C2CC3CCC1N3C/C2=C\c1cccnc1 (stereo not drawn)
A: < 5.00

====

biological target: Norepinephrine transporter (Rattus norvegicus); assay: Ability to inhibit reuptake of norepinephrine ([3H]NE) at norepinephrine transporter of rat parietal/occipital region
value-type: pKi
# pKi is unitless: minus log10 of the molar concentration; print number only

compound	value-type	measured-result
COC(=O)C1C2CC3CCC1N3C/C2=C\c1ccsc1 (stereo not drawn)	pKi	7.48
COC(=O)C1C2CC3CCC1N3C/C2=C\c1ccc(OC)s1 (stereo not drawn)	pKi	5.65

Let us examine a further case.
Q: # get_value(readout='pKi', item= CCc1ccc(/C=C2\CN3C4CCC3C(C(=O)OC)C2C4)s1 (stereo not drawn) )
A: 5.67

====

target: Sodium-dependent serotonin transporter (Rattus norvegicus, UniProt P31652); assay: Ability to inhibit reuptake of serotonin ([3H]5-HT) at serotonin transporter of rat midbrian
value-type: pKi
Hey, just a heads up that pKi is the negative log base 10 of the concentration in molar.

compound	test-target	value-type	measured-result
COC(=O)C1C2CC3CCC1N3C/C2=C\c1cc(C)c(Br)s1 (stereo unspecified)	Sodium-dependent serotonin transporter (Rattus norvegicus, UniProt P31652)	pKi	8.17
COC(=O)C1C2CC3CCC1N3C/C2=C\c1ccc(-c2cccs2)s1 (stereo unspecified)	Sodium-dependent serotonin transporter (Rattus norvegicus, UniProt P31652)	pKi	7.32
CCCc1ccc(/C=C2\CN3C4CCC3C(C(=O)OC)C2C4)s1 (stereo unspecified)	Sodium-dependent serotonin transporter (Rattus norvegicus, UniProt P31652)	pKi	6.57
COC(=O)C1C2CC3CCC1N3C/C2=C\c1ccc(Cl)s1 (stereo unspecified)	Sodium-dependent serotonin transporter (Rattus norvegicus, UniProt P31652)	pKi	7.28

Now look at this one.
Q: Given the compound COC(=O)C1C2CC3CCC1N3C/C2=C\c1cccnc1 (stereo unspecified) , what is its reported pKi?
A: 5.34

Measured values drawn from ChEMBL document CHEMBL1136297 for this set.
